Origin of the recorded values: PubChem BioAssay (NCI)

Listing: TGI of selected compounds
# Tested on: UACC-62 melanoma
# assayText: NCI tumour cell line growth inhibition, 48 h

Field: example entries. Status: answers known.
[[record]]
compound = "O=C1CCCCCCCCCCC1CN1CCCC1 (stereo unspecified)"
systemname = "UACC-62 melanoma"
valuemeasured = "36.7 µM"

[[record]]
compound = "C=C(C(N)=O)c1ccc([N+](=O)[O-])o1"
systemname = "UACC-62 melanoma"
valuemeasured = "21.4 µM"

[[record]]
compound = "Cc1ccc(OCC2OC(n3cnc4nc(N)nc(Cl)c43)CC2Oc2ccc(C)cc2)cc1 (stereo unspecified)"
systemname = "UACC-62 melanoma"
valuemeasured = "> 100 µM"

[[record]]
compound = "Cc1c(Cl)cccc1C(=O)Nc1nc2c(s1)CN(C(=O)c1ccc(C(F)(F)F)cc1)CC2"
systemname = "UACC-62 melanoma"
valuemeasured = "> 50 µM"

[[record]]
compound = "COc1cccc(CCN2CCN(CCCc3ccccc3)CC2)c1"
systemname = "UACC-62 melanoma"
valuemeasured = "> 100 µM"


Attention now turns to another entry.
Task: Returns the measured TGI for the input compound. Input: CSCSSC
Output: > 100 µM

---

# Tested on: HS 578T breast
# assayText: NCI tumour cell line growth inhibition, 48 h; in the data active = GI50 below about 0.43 µM; inactive = the rest
Allowed answers: active, inactive

As a guide, the following entries are already answered.
[[record]]
compound = "CC1=C(C(=O)Nc2ccc3n[nH]c(C)c3c2)C(c2ccc(C(F)(F)F)cc2)CC(=O)N1 (stereo not given)"
classification = "active"

[[record]]
compound = "O=C(N/N=C/C=C/c1ccc([N+](=O)[O-])o1)c1cc2ccccc2cc1O"
classification = "inactive"

[[record]]
compound = "CC[C@@]1(O)C(=O)OCc2c1cc1n(c2=O)Cc2cc3cc4c(cc3nc2-1)OCO4"
classification = "inactive"


Task: Recorded call for N#C/C(=C\c1ccsc1)c1nc2ccccc2o1 ?
Output: inactive

Task: Also, NS(=O)(=O)c1ccc(/C=C/c2ccc(F)cc2)cc1 please.
Output: inactive

Task: Also, O=C(Nc1cccc(-n2cc(-c3ccncc3)c(-c3ccc(Cl)c(O)c3)n2)c1)Nc1cc(C(F)(F)F)cc(C(F)(F)F)c1 please.
Output: inactive

Task: Also, Cc1cc(F)ccc1S(=O)(=O)Nc1cc(-c2c(O)ccc3ccccc23)c(O)c2ccccc12 please.
Output: inactive

Task: Also, O=C1C(Nc2ccc(Cl)cc2)=C(I)C(=O)c2ncccc21 please.
Output: inactive

Task: Also, O=C1OCC2=C1C(c1cccc(Cl)c1)c1cc3c(cc1N2CCO)OCCO3 (stereo not given) please.
Output: active

Task: Also, CCNCCCn1c2c(c3ccc(Cl)cc3c1=O)C(=O)c1cc(OC)cnc1-2 please.
Output: inactive

---

# System: NCI-H460 lung
# assayText: NCI tumour cell line growth inhibition, 48 h
Listing: TGI of selected compounds

Field: example entries. Status: answers known.
[[record]]
compound = "COc1cc2c(cc1OC)[C@H](C)N1CCc3cc(OC)c(OC)cc3[C@@H]1C2"
valuemeasured = "> 100 µM"

[[record]]
compound = "CCOC(=O)c1nc2ccc(C(F)(F)F)cc2nc1Oc1cc(OC)c(OC)c(OC)c1"
valuemeasured = "> 100 µM"

[[record]]
compound = "COc1ccc(C/C(C)=C(/c2ccc(OCCN3CCCCC3)cc2)c2ccc(OC(=O)NCc3ccccc3)cc2)cc1"
valuemeasured = "0.775 µM"

[[record]]
compound = "O=C(Nc1cccc(-n2cc(-c3ccncc3)c(-c3ccc(Cl)c(O)c3)n2)c1)Nc1cc(C(F)(F)F)cc(C(F)(F)F)c1"
valuemeasured = "1.36 µM"

[[record]]
compound = "CC(C)=NN/C(=N\\S(=O)(=O)c1ccc(Oc2cccc(Cl)c2C#N)cc1)Nc1ccc(Cl)cc1"
valuemeasured = "> 100 µM"

[[record]]
compound = "COc1ccc(/C=C/c2cc(OC)c(OC)c(OC)c2)cc1"
valuemeasured = "> 80.6 µM"


Task: Entry COc1ccc2c(c1)c(CC(=O)[Se]C)c(C)n2C(=O)c1ccc(Cl)cc1 , system NCI-H460 lung: what TGI was measured?
Output: > 1 µM

Task: Also, O=C1CCCCC1S(=O)(=O)c1ccccc1 (stereo not given) please.
Output: > 100 µM

Task: Also, NCCCN(CCCN(C(=O)Nc1ccccc1)c1ccccc1)C(=O)Nc1ccccc1 please.
Output: 94.8 µM

Task: Also, NC(=O)NNc1nc(-c2ccccc2)cs1 please.
Output: > 100 µM

Task: Also, O=C1CCCCC/C1=C\c1ccc([N+](=O)[O-])cc1 please.
Output: 39.4 µM

Task: Also, CC1(C)N/C(=C\C=O)C(C)(C)N1O please.
Output: > 100 µM

Task: Also, CCCCOC(=O)N1CCN(/[N+]([O-])=N/Oc2ccc([N+](=O)[O-])cc2[N+](=O)[O-])CC1 please.
Output: > 100 µM

Task: Also, O=C1C(c2ccccc2)=C(O)c2cccc3cccc1c23 please.
Output: > 100 µM

Task: Also, CO/N=C1\CC(NC(=O)CNC(=O)OC(C)(C)C)c2ccsc21 (stereo not given) please.
Output: > 100 µM

Task: Also, OCC(O)C(O)C(O)C(O)c1nc2ccc(Cl)cc2[nH]1 (stereo not given) please.
Output: > 100 µM

Task: Also, O=S(=O)(c1ccc(NC2=NC(c3ccc(O)cc3)(c3ccccc3O)c3ccccc32)cc1)c1ccc(NC2=NC(c3ccc(O)cc3)(c3ccccc3O)c3ccccc32)cc1 (stereo not given) please.
Output: 47.5 µM

Task: Also, C=C[C@@H](C)[C@H](NS(=O)(=O)c1ccc(C)cc1)C(=O)OCC please.
Output: > 100 µM

Task: Also, ClCCCc1ccccc1C1=NCCc2ccccc21 please.
Output: > 100 µM

Task: Also, COc1cc([C@@H]2c3cc4c(cc3[C@@H](c3c(O)cc(O)c5c3O[C@H](c3ccc(O)c(O)c3)[C@@H](O)C5)[C@H]3COC(=O)[C@H]23)OCO4)cc(OC)c1OC please.
Output: 3.72 µM

---

Listing: TGI of selected compounds
# Test system: M14 melanoma
# assayText: NCI tumour cell line growth inhibition, 48 h

Task: Entry OCCO/N=C1\C(c2c(O)[nH]c3ccccc23)=Nc2ccccc21 , system M14 melanoma: what TGI was measured?
Output: > 100 µM

Task: Also, CC1CCC/C1=C(/I)C(=O)c1ccccc1 (stereo not given) please.
Output: > 100 µM

Task: Also, CC(NC(=O)C(NC(=O)CNC(=O)OC(C)(C)C)C(C)C)C(=O)Oc1c(Cl)c(Cl)c(Cl)c(Cl)c1Cl (stereo not given) please.
Output: 39.5 µM

---

# System: UACC-257 melanoma
# assayText: NCI tumour cell line growth inhibition, 48 h
Listing: TGI of selected compounds

Field: example entries. Status: answers known.
[[record]]
compound = "C[C@@H]1[C@H](C)N1CC(O)Cn1ccnc1[N+](=O)[O-] (stereo partly specified)"
quantityname = "TGI"
valuemeasured = "> 100 µM"

[[record]]
compound = "O=C(N/N=C/C=C/c1ccc([N+](=O)[O-])o1)c1cc2ccccc2cc1O"
quantityname = "TGI"
valuemeasured = "4.21 µM"

[[record]]
compound = "O=C1C=CC(=O)C2=C1[C@@H](O)C1CC=CC3C(=O)O[C@@H]2C31 (stereo partly specified)"
quantityname = "TGI"
valuemeasured = "> 57.5 µM"

[[record]]
compound = "COC(OC)[C@@H]1OC[C@H](n2cnc3c(N)ncnc32)[C@H]1O"
quantityname = "TGI"
valuemeasured = "> 100 µM"


Task: Returns the measured TGI for the input compound. Input: CCCCCCC[CH2][Sn]([CH2]CCCCCCC)([O]c1cccc2cccnc12)[O]c1cccc2cccnc12
Output: 4.56 µM

Task: Also, CC(=O)NCCC1CN(C(=O)/C=C/I)c2ccccc21 (stereo unspecified) please.
Output: 20.4 µM

Task: Also, O=C1Nc2ccc(Br)cc2C1=Nc1cccnc1 please.
Output: 55.9 µM

Task: Also, CCCC(=O)NC(Nc1ccc(S(=O)(=O)Nc2cc(C)on2)cc1)(C(=O)OCC)C(F)(F)F (stereo unspecified) please.
Output: > 100 µM

---

# System: A498 renal
# assayText: NCI tumour cell line growth inhibition, 48 h
quantityName: TGI

[[record]]
molecule = "O=S(=O)(c1ccc(NC2=NC(c3ccc(O)cc3)(c3ccccc3O)c3ccccc32)cc1)c1ccc(NC2=NC(c3ccc(O)cc3)(c3ccccc3O)c3ccccc32)cc1 (stereo not given)"
valuemeasured = "44.8 µM"

[[record]]
molecule = "COc1ccc(C/C(C)=C(/c2ccc(OCCN3CCCCC3)cc2)c2ccc(OC(=O)NCc3ccccc3)cc2)cc1"
valuemeasured = "0.744 µM"

[[record]]
molecule = "OCCO/N=C1\\C(c2c(O)[nH]c3ccccc23)=Nc2ccccc21"
valuemeasured = "0.875 µM"

[[record]]
molecule = "O=C(Nc1cccc(-n2cc(-c3ccncc3)c(-c3ccc(Cl)c(O)c3)n2)c1)Nc1cc(C(F)(F)F)cc(C(F)(F)F)c1"
valuemeasured = "2.3 µM"

[[record]]
molecule = "c1cncc(C2N3CCCCC3[C@@H]3c4[nH]c5ccccc5c4CCN23)c1 (stereo not given in full)"
valuemeasured = "> 100 µM"

[[record]]
molecule = "CC1C(=O)N(c2ccccc2)NC12CCCc1ccccc12 (stereo not given)"
valuemeasured = "> 100 µM"


Task: Returns the measured TGI for the input molecule. Input: O=C1CCCCC1S(=O)(=O)c1ccccc1 (stereo not given)
Output: > 100 µM

Task: Also, COC(=O)C1CCC(=S)N1C(=O)c1ccccc1 (stereo not given) please.
Output: > 100 µM

Task: Also, O=C(N/N=C/C=C/c1ccc([N+](=O)[O-])o1)c1cc2ccccc2cc1O please.
Output: 8.95 µM

Task: Also, N#CC1(C#N)NC(c2cccs2)C(C#N)(C#N)NC1c1cccs1 (stereo not given) please.
Output: 74.6 µM
